# Test system: HFL1
# test-summary: Induction of glycosaminoglycan synthesis priming in human HFL1 cells assessed as ratio of fractions containing free glycosaminoglycan chains in drug to untreated control; note: test concentration or dose not given here
# Assay type: cell-based
test-readout: Ratio

Sample answers from the record:
{"smiles-str": "CC(=O)Oc1cccc2cc(O[C@@H]3OC[C@@H](OC(C)=O)[C@H](OC(C)=O)[C@H]3OC(C)=O)ccc12", "Ratio": 1.3}
{"smiles-str": "CC(=O)Oc1ccc2ccccc2c1O[C@@H]1OC[C@@H](OC(C)=O)[C@H](OC(C)=O)[C@H]1OC(C)=O", "Ratio": 0.6}
{"smiles-str": "CC(=O)O[C@@H]1[C@@H](OC(C)=O)[C@H](Oc2ccc(O[C@@H]3OC[C@@H](OC(C)=O)[C@H](OC(C)=O)[C@H]3OC(C)=O)c3ccccc23)OC[C@H]1OC(C)=O", "Ratio": 13.6}
{"smiles-str": "CC(=O)O[C@@H]1[C@@H](OC(C)=O)[C@H](Oc2cc(O[C@@H]3OC[C@@H](OC(C)=O)[C@H](OC(C)=O)[C@H]3OC(C)=O)c3ccccc3c2)OC[C@H]1OC(C)=O", "Ratio": 4.7}

(P) CC(=O)O[C@@H]1[C@@H](OC(C)=O)[C@H](Oc2ccc3ccc(O[C@@H]4OC[C@@H](OC(C)=O)[C@H](OC(C)=O)[C@H]4OC(C)=O)cc3c2)OC[C@H]1OC(C)=O
(Q) CC(=O)Oc1cc(O[C@@H]2OC[C@@H](OC(C)=O)[C@H](OC(C)=O)[C@H]2OC(C)=O)c2ccccc2c1
Sort P and Q by Ratio descending and give the first. State your choice using its label. P
(P: 6.4, Q: 2.2)

Measured values drawn from ChEMBL document CHEMBL1153912 for this set.
